From: PubChem BioAssay (NCI)

Assignment: determine reported growth inhibition for the given molecules.
# EXPERIMENTAL DETAILS: NCI Yeast Anticancer Drug Screen. Data for the bub3 strain (AID 167)
# SETTINGS: S. cerevisiae bub3 mutant strain, at 50.0 µM, hits give high values
This is part of a sample that, as a whole, favours compounds with a hit. Of some 79,000 tested, about 15% had one in any assay.
One number for each entry, in %.

Solved entries (count: 5):
Request: GET /values?readout=growth inhibition&item= `O=C(Nc1ccc(Cl)cc1)Nc1cc(Cl)ccc1O`
Result: 96.5

Request: GET /values?readout=growth inhibition&item= `NC(=S)Nc1c(Br)cc(Br)cc1Br`
Result: 74

Request: GET /values?readout=growth inhibition&item= COc1ccc2sc3c(C)ccc(NCC4CCCN5CCCCC45)c3c(=O)c2c1 (stereo not given)
Result: 99.5

Request: GET /values?readout=growth inhibition&item= `CCCCCCCCCCCCNC(=O)NCC(OCC)OCC`
Result: 91.8

Request: GET /values?readout=growth inhibition&item= CCC(C)(C)c1ccc(OC(=O)C(C)OC(C)=O)cc1 (stereo not given)
Result: 87.2

Please state, for each entry, its recorded growth inhibition.
1. COc1ccc(C2CC(c3c(O)ccc4ccccc34)=NN2)cc1OC (stereo not given)
2. Nc1ccc(O)c(=O)cc1
3. Cc1ccc(Sc2ccc3ccccc3n2)cc1
4. CC[N+](C)(CC)CCCOC(=O)c1ccccc1Oc1ccc(C)cc1
5. CC(C)(C)c1ccc(-n2c3nc(=O)n(-c4ccccc4C(F)(F)F)c(=O)c-3cc3ccccc32)cc1
6. CC(C)(C)OC(=O)CSC#N
7. CN(C)c1ccc(/C=C2/Oc3ccc(Cl)cc3C2=O)cc1

Result:
[90.5, 76.6, 67, 12.8, 47.1, 69.2, 89.9]

Please state, for each entry, its recorded growth inhibition.
1. OC1(c2ccccc2)c2ccccc2C(O)(c2ccccc2)c2cc3c(cc21)CCCC3 (stereo not given)
2. COc1ccc(-c2c3ccccc3[n+](-c3ccccc3)c3ccccc23)cc1
3. CCS(=O)(=O)c1ccc(NC(=O)OC2CC(C)CCC2C(C)C)cc1 (stereo not given)
4. CCC(N)(CO)CO
5. OC1(c2ccccc2)CCC2CCCCC2C1 (stereo not given)
6. O=C(Nc1ccc(Cl)cc1Cl)OC(Cn1cncn1)c1ccc(Cl)cc1Cl (stereo not given)
7. [N-]=[N+]=NCC(O)c1ccc2c(c1)[nH]c1ccccc12 (stereo not given)

Result:
1. 96
2. 99.2
3. 90.8
4. 44.1
5. 88.5
6. 92.5
7. 64

----------
Assignment: determine reported growth inhibition for the given compounds.
# EXPERIMENTAL DETAILS: NCI Yeast Anticancer Drug Screen. Data for the rad50 strain (AID 155);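 also: 0% = growth of vehicle-only cultures of the same strain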
# SETTINGS: S. cerevisiae rad50 strain growth inhibition; at 50.0 µM (retest, dose inferred, filed as 5.0); hits give high values
About 79,000 compounds went through this panel and 15% of them were active in at least one assay; those are over-represented in the sample as a whole.
Give bare numbers, in %.

Solved entries (count: 4):
Request: GET /values?readout=growth inhibition&item= Cc1cccc(NC(=O)C(=O)C(C2OC(=O)c3ccccc32)[N+](=O)[O-])c1C (stereo not given)
Result: 69

Request: GET /values?readout=growth inhibition&item= `Clc1ccc(CN2COc3c(ccc4ccccc34)C2)cc1`
Result: 78

Request: GET /values?readout=growth inhibition&item= `C=CCOC(=O)C#CCCCC`
Result: 1

Request: GET /values?readout=growth inhibition&item= COc1nc2nc(SC(CC(=O)O)C(=O)c3ccc(Cl)cc3)[nH]c2c2ccccc12 (stereo not given)
Result: 7

---
Request: GET /values?readout=growth inhibition&item= `CC(C)=CC[P+](CCCCCC[P+](CC=C(C)C)(c1ccccc1)c1ccccc1)(c1ccccc1)c1ccccc1`
Result: 9

----------
# EXPERIMENTAL DETAILS: NCI Yeast Anticancer Drug Screen. Data for the sgs1 mgt1 strain (AID 161);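 also: 0% = growth of cultures given vehicle only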
# SETTINGS: S. cerevisiae sgs1 mgt1 strain, at 50.0 µM, hits give high values
The panel holds about 79,000 compounds, 15% with a hit somewhere; the sample as a whole holds those more often.
growth inhibition below 90% gives class 0; growth inhibition at or above it gives class 1.

Example entries and their recorded answers appear below.
Request: Would you say `Cc1nc(C(N)=S)sc1C(=O)CC(=O)C(=O)Nc1nc2ccccc2[nH]1` shows growth inhibition at minimum 90%?
Result: class 0

Request: Would you say `Oc1[nH]c2ccccc2c1N=NC(=S)N1CCCC1` shows growth inhibition at minimum 90%?
Result: class 0

Request: Would you say `O=C(C[N+]1(CCc2ccccc2)CCOCC1)c1ccc(-c2ccccc2)cc1` shows growth inhibition at minimum 90%?
Result: class 1

---
Request: Would you say `CCCCC1C(=S)N(c2ccccc2)N(c2ccccc2)C1=S` shows growth inhibition at minimum 90%?
Result: class 0

Request: Would you say `CCn1c2ccccc2n2c(=O)cc(-c3ccccc3)c(C#N)c12` shows growth inhibition at minimum 90%?
Result: class 0

Request: Would you say CC1Cc2cc(O)c(O)cc2-c2cc(O)c(O)cc2CC1C (stereo unspecified) shows growth inhibition at minimum 90%?
Result: class 0

Request: Would you say CCOC(=O)c1cnccc1CC1(C#N)c2ccccc2C=CN1C(=O)c1ccccc1 (stereo unspecified) shows growth inhibition at minimum 90%?
Result: class 1

Request: Would you say `CC(C)C(=O)/C=C/c1ccc(Cl)cc1Cl` shows growth inhibition at minimum 90%?
Result: class 0

Request: Would you say `Cc1ccc(NC(=O)/C(CC(=O)c2sc(Nc3ccc(Cl)c(Cl)c3)nc2C)=N\Nc2ccc([N+](=O)[O-])cc2[N+](=O)[O-])c(C)c1` shows growth inhibition at minimum 90%?
Result: class 1

Request: Would you say `N=Cc1cc([N+](=O)[O-])ccc1O` shows growth inhibition at minimum 90%?
Result: class 1

Request: Would you say `O=S(=O)(Nc1ccccc1)c1ccccc1C#Cc1ccccc1` shows growth inhibition at minimum 90%?
Result: class 0

----------
Assignment: determine reported growth inhibition for the given compounds.
# EXPERIMENTAL DETAILS: NCI Yeast Anticancer Drug Screen. Data for the bub3 strain (AID 167)
# SETTINGS: S. cerevisiae bub3 mutant strain, at 5.0 µM (retest, dose inferred, filed as 0.5), hits give high values
The panel holds about 79,000 compounds, 15% with a hit somewhere; the sample as a whole holds those more often.
Numbers only, in %.

Request: GET /values?readout=growth inhibition&item= `C/C(=N\Oc1ncc([N+](=O)[O-])c(O/N=C(\C)c2ccccc2)n1)c1ccccc1`
Result: 48

Request: GET /values?readout=growth inhibition&item= `Oc1ccc(-c2ccccc2)cc1O`
Result: -6

Request: GET /values?readout=growth inhibition&item= `O=c1c2ccccc2ncn1Cc1ccccc1[N+](=O)[O-]`
Result: -1

Request: GET /values?readout=growth inhibition&item= CC(=O)OCC1OC(Sc2ccc3ccccc3c2)C(OC(C)=O)C(OC(C)=O)C1OC(C)=O (stereo unspecified)
Result: 4

Request: GET /values?readout=growth inhibition&item= `O=S(=O)(Sc1ccccc1)c1ccccc1`
Result: 16

---
Request: GET /values?readout=growth inhibition&item= COc1cc(C2c3cc4c(cc3OC3(O)C=C(C)OC(=O)C23)OCO4)cc(OC)c1OC (stereo unspecified)
Result: -1

----------
# EXPERIMENTAL DETAILS: NCI Yeast Anticancer Drug Screen. Data for the mec2-1 strain (AID 157)
# SETTINGS: S. cerevisiae mec2-1 strain, at 5.0 µM (retest, dose inferred, filed as 0.5)
About 79,000 compounds went through this panel and 15% of them were active in at least one assay; those are over-represented in the sample as a whole. The source made the active and inactive calls. No stated cut-off is given here; in the data, active means growth inhibition above about 70%; inactive means the rest.
Hello, when you answer, please use one of the following outcomes: active, inactive

Example entries and their recorded answers appear below.
Request: // outcome(item) with item = CCCC(C)c1ccc(O)cc1 (stereo not drawn)
Result: inactive

Request: // outcome(item) with item = CCC(C)SC1SCC2C(=O)N(C)C3(CC3C)C(=O)OCC(NC(=O)c3nc4ccccc4cc3O)C(=O)NC(C)C(=O)N(C)C1C(=O)N(C)C1(CC1C)C(=O)OCC(NC(=O)c1nc3ccccc3cc1O)C(=O)NC(C)C(=O)N2C (stereo not drawn)
Result: active

Request: // outcome(item) with item = `Cc1cc(Cl)c(C(C)C)cc1O`
Result: inactive

Moving on to another molecule below.
Request: // outcome(item) with item = `Clc1ccc2nc(CCSCCc3nc4ccc(Cl)cc4[nH]3)[nH]c2c1`
Result: inactive

----------
# EXPERIMENTAL DETAILS: NCI Yeast Anticancer Drug Screen. Data for the cln2 rad14 strain (AID 165);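 also: 0% = growth equal to vehicle treated cultures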
# SETTINGS: S. cerevisiae cln2 rad14 strain, at 5.0 µM (retest, dose inferred, filed as 0.5)
The panel holds about 79,000 compounds, 15% with a hit somewhere; the sample as a whole holds those more often. The source made the active and inactive calls. Rule as the data show it: active = growth inhibition above about 70%; inactive = the rest.
Hello, when you answer, please use one of the following outcomes: 1.0 = active, 0.0 = inactive

Example entries and their recorded answers appear below.
Request: // outcome(item) with item = `Nc1ccc2nc(Nc3ccc(Cl)c(Cl)c3)cnc2c1`
Result: 0.0

Request: // outcome(item) with item = `O=C(Cc1nc2ccc([N+](=O)[O-])cc2[nH]c1=O)C(=O)Nc1cc(Cl)c(Cl)cc1Cl`
Result: 0.0

Request: // outcome(item) with item = `O=C(c1c(F)c(F)c(F)c(F)c1F)n1c(=S)n(C(=O)c2c(F)c(F)c(F)c(F)c2F)c2ccccc21`
Result: 0.0

Request: // outcome(item) with item = `Cc1cc(C)c(S(=O)(=O)n2ccnc2)c(C)c1`
Result: 0.0

Request: // outcome(item) with item = `Cc1cc([N+](=O)[O-])ccc1NC(=O)N(C)CCOC(=O)Nc1ccccc1`
Result: 0.0

---
Request: // outcome(item) with item = `NC(=S)Nc1c(Br)cc(Br)cc1Br`
Result: 0.0

Request: // outcome(item) with item = `O=C(CC(=O)c1ccc(O)cc1)c1ccccc1`
Result: 0.0

Request: // outcome(item) with item = `Oc1ccc(C2CCCCC2)c(O)c1`
Result: 0.0

Request: // outcome(item) with item = `O[Si](O)(c1ccccc1)c1ccccc1`
Result: 0.0

Request: // outcome(item) with item = `c1nc(N2CCOCC2)c2[nH]cnc2n1`
Result: 0.0

Request: // outcome(item) with item = COc1ccc(CCC2(C)OCCC(C)O2)cc1 (stereo not drawn)
Result: 0.0

Request: // outcome(item) with item = `O=C1NC(=S)S/C1=C/c1ccc(/C=C2/SC(=S)NC2=O)cc1`
Result: 0.0

Request: // outcome(item) with item = `Cc1csc(N)[n+]1CCC(=O)[O-]`
Result: 0.0

Request: // outcome(item) with item = `CCCCN=C(c1ccc(O)cc1)c1ccc(OC)cc1O`
Result: 0.0

Request: // outcome(item) with item = `O=C(C[N+]1(CCc2ccccc2)CCOCC1)c1ccc(-c2ccccc2)cc1`
Result: 0.0
